B1: TRIM15 (parent)
chain: QSSGKILLCPLCQEEEQAETPMAP

variants of: B1; experiment: protein stability index of a GFP-peptide fusion (GPS, HEK-293T) (PSI 1-6); higher = more stable; details: c terminus: a fixed tail appended;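 also: lentivirally expressed fusions sorted by FACS into six bins by GFP to DsRed ratio, PSI derived from sequencing read proportions per bin multiplied by bin number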

{"mutant": "Q17M", "protein stability index": 3.02}
{"mutant": "G4L", "protein stability index": 2.93}
{"mutant": "A23W", "protein stability index": 2.91}
{"mutant": "S3F", "protein stability index": 3}
